Target chain: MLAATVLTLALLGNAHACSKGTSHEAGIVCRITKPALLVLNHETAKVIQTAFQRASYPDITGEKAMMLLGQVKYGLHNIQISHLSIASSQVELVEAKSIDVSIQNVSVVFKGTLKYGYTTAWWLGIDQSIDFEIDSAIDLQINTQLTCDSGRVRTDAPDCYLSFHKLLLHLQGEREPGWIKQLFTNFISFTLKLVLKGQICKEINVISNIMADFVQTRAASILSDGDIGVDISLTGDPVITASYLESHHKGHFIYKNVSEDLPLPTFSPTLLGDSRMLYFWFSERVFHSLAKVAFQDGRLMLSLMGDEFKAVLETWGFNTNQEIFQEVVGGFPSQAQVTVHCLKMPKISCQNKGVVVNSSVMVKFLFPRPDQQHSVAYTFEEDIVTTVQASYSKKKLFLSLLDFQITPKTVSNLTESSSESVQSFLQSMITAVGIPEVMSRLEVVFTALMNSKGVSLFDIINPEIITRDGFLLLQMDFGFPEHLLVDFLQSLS
API: label(entry) gives Y if the entry's IC50 is strictly smaller than 100 nM; on equality or larger values it gives N.

Example cases with answers are listed next.
- compound: "Cc1cccc(-c2cccc(CN(CC(O)C(F)(F)F)c3cccc(Oc4ccccc4)c3)c2)n1 (stereo not given)"
  group: "N"
- compound: "OC(CN(Cc1cccc(OC(F)(F)C(F)F)c1)c1cccc(OCc2ccccc2CC(F)(F)F)c1)C(F)(F)F (stereo not given)"
  group: "Y"
- compound: "Cc1cc(C)cc(Oc2cccc(CN(CC(O)C(F)(F)F)c3cccc(Oc4ccccc4)c3)c2)c1 (stereo not given)"
  group: "Y"

Please examine the following record next.
Query: Consider the compound OC(CN(Cc1cccc(-c2cccc(C(F)(F)F)n2)c1)c1cccc(Oc2ccccc2)c1)C(F)(F)F (stereo not given) . Is its IC50 strictly less than 100 nM?
Response: N
